- tgt: Thioredoxin reductase
- test-method-notes: Insulin turbidimetric assay counter screen, thioredoxin reductase
- Assay type: biochemical
- experimental-conditions: Table B; read-out: Counter Screen: Selectivity against other thiol isomerases IC50 Thioredoxin reductase
pIC50: −log10 of the molar value.
reported-endpoint: pIC50

>>> df
                               smiles_input  measured_result
0  CCOC(=O)C1(CCOc2ccccc2)CCN(Cc2ccc(O)cc2)CC1           < 4.52
1  CC(C)(C)OC(=O)C1(CCOc2ccccc2)CCN(Cc2ccc(O)c(Cl)c2)CC1           < 4.52
2  CCN(C)C(=O)C1(CCOc2ccccc2)CCN(Cc2ccc(O)c(Cl)c2)CC1           < 4.52
3  CC(C)OC(=O)C1(CCOc2ccccc2)CCN(Cc2ccc(O)c(Cl)c2)CC1           < 4.52
4  O=C(NC1CCCC1)C1(CCOc2ccccc2)CCN(Cc2ccc(O)c(Cl)c2)CC1           < 4.52
5  CCOC(=O)C1(CCOc2ccccc2)CCN(Cc2ccc(O)c(Cl)c2)CC1           < 4.52
6  CCOC(=O)C1(CCOc2ccccc2)CCN(Cc2ccc(OC)c(Cl)c2)CC1           < 4.52
7  CCOC(=O)C1(CCOc2ccccc2)CCN(C(=O)c2ccc(O)c(Cl)c2)CC1           < 4.52

Q) Kindly indicate its recorded pIC50. Item: O=C(Nc1ccccc1)C1(CCOc2ccccc2)CCN(Cc2ccc(O)c(Cl)c2)CC1
A) < 4.52

====

pIC50: recorded values
- tgt: human PDI (Homo sapiens (Human), UniProt P07237)
- Sequence (P07237 18-508): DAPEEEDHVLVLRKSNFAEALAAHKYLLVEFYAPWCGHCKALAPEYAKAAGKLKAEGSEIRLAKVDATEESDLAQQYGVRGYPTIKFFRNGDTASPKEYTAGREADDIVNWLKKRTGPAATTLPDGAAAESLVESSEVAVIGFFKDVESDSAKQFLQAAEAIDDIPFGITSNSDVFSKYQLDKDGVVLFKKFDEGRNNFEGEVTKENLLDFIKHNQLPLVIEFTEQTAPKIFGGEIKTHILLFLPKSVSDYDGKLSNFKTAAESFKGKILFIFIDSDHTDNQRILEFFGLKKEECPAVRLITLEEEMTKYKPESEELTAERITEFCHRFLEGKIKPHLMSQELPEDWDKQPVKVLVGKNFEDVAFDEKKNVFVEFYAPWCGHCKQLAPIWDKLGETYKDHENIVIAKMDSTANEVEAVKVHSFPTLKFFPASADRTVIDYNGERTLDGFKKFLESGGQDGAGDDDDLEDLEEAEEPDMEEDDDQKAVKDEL
- test-method-notes: Insulin turbidimetric assay of PDI reductase activity
- Assay type: biochemical
- experimental-conditions: Table C; PDI; read-out: IC50
By convention, pIC50 is the negative base-10 log of a molar concentration.

Below, 2 compounds whose answers are already recorded.
>>> df
                               smiles_input  measured_result
0  CC(C)OC(=O)C1(CCOc2ccccc2)CCN(Cc2ccc(O)c(Cl)c2)CC1             6.07
1  CC(C)(C)OC(=O)C1(CCOc2ccccc2)CCN(Cc2ccc(O)c(Cl)c2)CC1             6.19

Continue with the compound presented below.
Q) Kindly indicate its recorded pIC50. Item: CCOC(=O)C1(CCOc2ccccc2)CCN(C(=O)c2ccc(O)c(Cl)c2)CC1
A) 5.65
